experiment: Stability of chlorin e6 analogue salts in aqueous solution (HPLC purity over time); assay type: physicochemical; conditions: aqueous solution, 30° C., overall rating in words
reportedProperty: Stability

molecule: C=Cc1c(C)c2cc3nc(c(CC(=O)N(C)CCCC)c4[nH]c(cc5nc(cc1[nH]2)C(C)=C5CC)c(C)c4C(=O)O)[C@@H](CCC(=O)O)[C@@H]3C [Compound 11]
experimentalResult: Good
//
molecule: C=Cc1c(C)c2cc3nc(c(CC(=O)O)c4[nH]c(cc5nc(cc1[nH]2)C(C)=C5CC)c(C)c4C(=O)OC)[C@@H](CCC(=O)O)[C@@H]3C [Compound 12]
experimentalResult: Poor
//
molecule: C=Cc1c(C)c2cc3nc(c(CC(=O)O)c4[nH]c(cc5nc(cc1[nH]2)C(C)=C5CC)c(C)c4C(=O)OC)[C@@H](CCC(=O)O)[C@@H]3C [Compound 20]
experimentalResult: Poor

* * *

assay: Stability of chlorin e6 analogue salts in aqueous solution (HPLC purity over time); type: physicochemical; conditions: distilled deionised water, 30° C., air and ambient light not excluded, 66 hours
reportedProperty: Purity by HPLC after 66 hours (%)
One number for each entry, in %.

// below: answered molecules
molecule: C=Cc1c(C)c2cc3nc(c(CC(=O)O)c4[nH]c(cc5nc(cc1[nH]2)C(C)=C5CC)c(C)c4C(=O)OC)[C@@H](CCC(=O)O)[C@@H]3C [Compound 20]
experimentalResult: 1.62
--
molecule: C=Cc1c(C)c2cc3nc(c(CC(=O)OCC)c4[nH]c(cc5nc(cc1[nH]2)C(C)=C5CC)c(C)c4C(=O)O)[C@@H](CCC(=O)O)[C@@H]3C
experimentalResult: 95.34
--
molecule: C=Cc1c(C)c2cc3nc(c(CC(=O)O)c4[nH]c(cc5nc(cc1[nH]2)C(C)=C5CC)c(C)c4C(=O)OC)[C@@H](CCC(=O)O)[C@@H]3C [Compound 12]
experimentalResult: 36.95

Field: next molecule
[ask] I am curious: what Purity by HPLC after 66 hours (%) value has been reported for C=Cc1c(C)c2cc3nc(c(CC(=O)O)c4[nH]c(cc5nc(cc1[nH]2)C(C)=C5CC)c(C)c4C(=O)O)[C@@H](CCC(=O)O)[C@@H]3C [Photodithiazine, reference compound] ?
[reply] 40.27
